# tested_system: T1, recombinant C-terminally truncated RSV (A2 strain) F protein (RSV (A2 strain), UniProt P03420 26-524)
# T1 construct: extracellular domain; also called truncated F protein; extracellular domain of the F protein from RSV A2
# T1 sequence (P03420 26-109, chain 1 of 2): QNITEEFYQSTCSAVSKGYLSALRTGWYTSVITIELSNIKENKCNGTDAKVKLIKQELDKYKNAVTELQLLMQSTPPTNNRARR
# T1 sequence (P03420 137-524, chain 2 of 2): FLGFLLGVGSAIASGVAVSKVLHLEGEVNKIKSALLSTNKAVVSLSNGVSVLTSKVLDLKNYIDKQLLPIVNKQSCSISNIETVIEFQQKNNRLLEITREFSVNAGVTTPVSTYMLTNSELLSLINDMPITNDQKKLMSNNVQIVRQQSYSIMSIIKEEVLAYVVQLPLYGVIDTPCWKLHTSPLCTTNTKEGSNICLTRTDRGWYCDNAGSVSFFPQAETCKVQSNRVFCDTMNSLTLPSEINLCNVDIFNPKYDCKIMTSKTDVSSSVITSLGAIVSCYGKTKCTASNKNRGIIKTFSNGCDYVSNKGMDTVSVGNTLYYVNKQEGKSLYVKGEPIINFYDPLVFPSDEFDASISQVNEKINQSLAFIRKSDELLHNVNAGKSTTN
# test_name: SPR (BIAcore), Fab over immobilised F

binder: AFFY Fab (Fab, name in Kabat numbering, V domains shown) VH: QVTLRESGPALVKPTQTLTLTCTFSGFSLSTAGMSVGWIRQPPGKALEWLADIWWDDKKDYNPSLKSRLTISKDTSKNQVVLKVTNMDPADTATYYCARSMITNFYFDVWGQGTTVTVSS VL: DIQMTQSPSTLSASVGDRVTITCSASSSVGYMHWYQQKPGKAPKLLIYDTFKLASGVPSRFSGSGSGTEFTLTISSLQPDDFATYYCFQGSYYPFTFGGGTKVEIK
koff: ≤ 5e-06 s⁻¹

binder: W100F Fab (Fab, name in Kabat numbering, V domains shown) VH: QVTLRESGPALVKPTQTLTLTCTFSGFSLSTSGMSVGWIRQPPGKALEWLADIWWDDKKDYNPSLKSRLTISKDTSKNQVVLKVTNMDPADTATYYCARSMITNFYFDVWGQGTTVTVSS VL: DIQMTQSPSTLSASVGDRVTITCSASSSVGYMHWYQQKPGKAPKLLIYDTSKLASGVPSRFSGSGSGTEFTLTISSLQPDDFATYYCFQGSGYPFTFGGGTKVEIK
koff: 8.4e-05 s⁻¹

binder: AFSF Fab (Fab, name in Kabat numbering, V domains shown) VH: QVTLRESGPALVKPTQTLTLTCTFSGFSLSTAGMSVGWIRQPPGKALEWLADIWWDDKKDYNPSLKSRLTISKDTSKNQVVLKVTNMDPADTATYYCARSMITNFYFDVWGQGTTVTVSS VL: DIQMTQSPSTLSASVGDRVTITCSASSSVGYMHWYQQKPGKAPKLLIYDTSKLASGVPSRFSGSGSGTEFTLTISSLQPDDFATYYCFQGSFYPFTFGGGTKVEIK
koff: ≤ 5e-06 s⁻¹
